What follows is a record of pIC50 for hCA II (Homo sapiens).
Bear in mind: pIC50 is minus log10 of a mol/L concentration; give just that figure.

The following compounds have reported results that may help.
compound: CC(=O)O[C@@H]1C(=O)N(C2Cc3ccccc3C2)[C@@H]1c1ccc(F)cc1 (relative stereo)
numeric-readout: 8.16
//
compound: CC(=O)O[C@@H]1C(=O)N(C2Cc3ccccc3C2)[C@@H]1c1cccc(C)c1 (relative stereo)
numeric-readout: 8.38
//
compound: CC(=O)O[C@@H]1C(=O)N(C2Cc3ccccc3C2)[C@@H]1c1ccccc1Br (relative stereo)
numeric-readout: 8.28

API: the following record is the query input.
Hey, hCA II (Homo sapiens) data for CC(=O)O[C@@H]1C(=O)N(C2Cc3ccccc3C2)[C@@H]1c1ccccc1 (relative stereo) : pIC50 came out at 8.28

###

pIC50 for assorted molecules
# subject-of-test: hCA I (Homo sapiens)
# Sequence (P00915 whole entry): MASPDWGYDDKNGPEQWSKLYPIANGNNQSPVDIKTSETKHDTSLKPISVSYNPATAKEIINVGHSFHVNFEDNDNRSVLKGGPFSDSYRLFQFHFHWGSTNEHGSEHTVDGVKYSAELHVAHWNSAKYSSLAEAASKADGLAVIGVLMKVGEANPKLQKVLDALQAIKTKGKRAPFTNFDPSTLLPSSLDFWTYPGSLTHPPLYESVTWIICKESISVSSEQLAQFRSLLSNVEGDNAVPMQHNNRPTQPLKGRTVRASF
Bear in mind: pIC50 is minus log10 of a mol/L concentration; give just that figure.

molecule: CC(=O)O[C@@H]1C(=O)N(C2Cc3ccccc3C2)[C@@H]1c1ccccc1[N+](=O)[O-] (relative stereo) [Compound 2j]
pIC50: 8.32
--
molecule: CC(=O)O[C@@H]1C(=O)N(C2Cc3ccccc3C2)[C@@H]1c1cccc(Cl)c1 (relative stereo) [Compound 2e]
pIC50: 8.40
--
molecule: CC(=O)O[C@@H]1C(=O)N(C2Cc3ccccc3C2)[C@@H]1c1ccc(F)cc1 (relative stereo) [Compound 2k]
pIC50: 8.60
--
molecule: CC(=O)O[C@@H]1C(=O)N(C2Cc3ccccc3C2)[C@@H]1c1ccccc1 (relative stereo) [Compound 2a]
pIC50: 9.21
--
molecule: CC(=O)O[C@@H]1C(=O)N(C2Cc3ccccc3C2)[C@@H]1c1ccc(C)cc1 (relative stereo) [Compound 2c]
pIC50: 8.68
--
molecule: CC(=O)O[C@@H]1C(=O)N(C2Cc3ccccc3C2)[C@@H]1c1cccc(C)c1 (relative stereo) [Compound 2d]
pIC50: 9.64

API: the following record is the query input.
The molecule CC(=O)O[C@@H]1C(=O)N(C2Cc3ccccc3C2)[C@@H]1c1cccc(Br)c1 (relative stereo) [Compound 2g] showed pIC50 equal to 9.19

###

What follows is a record of Ki for hCA II (Homo sapiens, UniProt P00918).
Remember to put the unit after the number in your answer.

The following compounds have reported results that may help.
compound: CC(=O)OC1C(=O)N(C2Cc3ccccc3C2)C1c1ccc(Br)cc1 (centres unmarked)
Ki: 0.93 nM

compound: COc1cccc([C@@H]2[C@H](OC(C)=O)C(=O)N2C2Cc3ccccc3C2)c1 (relative stereo)
Ki: 3.15 nM

compound: CC(=O)O[C@@H]1C(=O)N(C2Cc3ccccc3C2)[C@@H]1c1cccc(Br)c1 (relative stereo)
Ki: 3.39 nM

compound: CC(=O)O[C@@H]1C(=O)N(C2Cc3ccccc3C2)[C@@H]1c1ccc(F)cc1 (relative stereo)
Ki: 1.34 nM

The compound CC(=O)O[C@@H]1C(=O)N(C2Cc3ccccc3C2)[C@@H]1c1ccccc1[N+](=O)[O-] (relative stereo) showed Ki equal to 2.88 nM

The compound CC(=O)O[C@@H]1C(=O)N(C2Cc3ccccc3C2)[C@@H]1c1ccccc1Br (relative stereo) showed Ki equal to 2.19 nM

The compound CC(=O)O[C@@H]1C(=O)N(C2Cc3ccccc3C2)[C@@H]1c1ccc(C)cc1 (relative stereo) showed Ki equal to 2.96 nM

The compound CC(=O)O[C@@H]1C(=O)N(C2Cc3ccccc3C2)[C@@H]1c1cccc(C)c1 (relative stereo) showed Ki equal to 3.26 nM

The compound CC(=O)O[C@@H]1C(=O)N(C2Cc3ccccc3C2)[C@@H]1c1ccccc1 (relative stereo) showed Ki equal to 3.54 nM

The compound CC(=O)O[C@@H]1C(=O)N(C2Cc3ccccc3C2)[C@@H]1c1ccc(Cl)c(Cl)c1 (relative stereo) showed Ki equal to 1.5 nM

The compound CC(=O)O[C@@H]1C(=O)N(C2Cc3ccccc3C2)[C@@H]1c1cccc(Cl)c1 (relative stereo) showed Ki equal to 8.34 nM
